Conditions: in 2-butanone, 288.15 K
outcome measure: solubility (mole fraction)

1) c1ccc2[nH]cnc2c1; 0.0265

====

Settings: in acetone, 298.15 K
outcome measure: solubility (mole fraction)

1. c1ccc2[nH]cnc2c1; 0.0296

====

Settings: in n-propanol, 308.15 K
outcome measure: solubility (mole fraction)

1) c1ccc2[nH]cnc2c1; 0.121

====

Details: in 1,4-dioxane, 313.15 K
outcome measure: solubility (mole fraction)

1) c1ccc2[nH]cnc2c1; 0.0292

====

Conditions: in ethanol, 323.15 K
outcome measure: solubility (mole fraction)

1) c1ccc2[nH]cnc2c1; 0.152

====

Conditions: in ethanol, 303.15 K
outcome measure: solubility (mole fraction)

1) c1ccc2[nH]cnc2c1; 0.109

====

Settings: in 1,4-dioxane, 288.15 K
outcome measure: solubility (mole fraction)

1) c1ccc2[nH]cnc2c1; 0.0171

====

Settings: in acetonitrile, 318.15 K
outcome measure: solubility (mole fraction)

1) c1ccc2[nH]cnc2c1; 0.0166

====

Details: in isopropyl acetate, 288.15 K
outcome measure: solubility (mole fraction)

1) c1ccc2[nH]cnc2c1; 0.00867

====

Conditions: in isopropanol, 318.15 K
outcome measure: solubility (mole fraction)

1) c1ccc2[nH]cnc2c1; 0.13

====

Details: in methanol, 323.15 K
outcome measure: solubility (mole fraction)

1) c1ccc2[nH]cnc2c1; 0.17

====

Settings: in methyl acetate, 303.15 K
outcome measure: solubility (mole fraction)

1) c1ccc2[nH]cnc2c1; 0.0146

====

Details: in methyl acetate, 293.15 K
outcome measure: solubility (mole fraction)

1) c1ccc2[nH]cnc2c1; 0.0108

====

Details: in n-butanol, 288.15 K
outcome measure: solubility (mole fraction)

1. c1ccc2[nH]cnc2c1; 0.091

====

Conditions: in n-propanol, 303.15 K
outcome measure: solubility (mole fraction)

1. c1ccc2[nH]cnc2c1; 0.113

====

Conditions: in ethyl acetate, 283.15 K
outcome measure: solubility (mole fraction)

1. c1ccc2[nH]cnc2c1; 0.00813

====

Conditions: in acetonitrile, 313.15 K
outcome measure: solubility (mole fraction)

1) c1ccc2[nH]cnc2c1; 0.0148

====

Conditions: in n-butyl acetate, 298.15 K
outcome measure: solubility (mole fraction)

1) c1ccc2[nH]cnc2c1; 0.0102

====

Details: in isopropanol, 293.15 K
outcome measure: solubility (mole fraction)

1) c1ccc2[nH]cnc2c1; 0.0785

====

Details: in acetonitrile, 298.15 K
outcome measure: solubility (mole fraction)

1) c1ccc2[nH]cnc2c1; 0.00905

====

Conditions: in acetonitrile, 283.15 K
outcome measure: solubility (mole fraction)

1) c1ccc2[nH]cnc2c1; 0.00513

====

Conditions: in n-pentanol, 323.15 K
outcome measure: solubility (mole fraction)

1) c1ccc2[nH]cnc2c1; 0.165

====

Conditions: in sec-butanol, 293.15 K
outcome measure: solubility (mole fraction)

1) c1ccc2[nH]cnc2c1; 0.105

====

Conditions: in methanol, 313.15 K
outcome measure: solubility (mole fraction)

1) c1ccc2[nH]cnc2c1; 0.143

====

Conditions: in 2-butanone, 293.15 K
outcome measure: solubility (mole fraction)

1. c1ccc2[nH]cnc2c1; 0.03

====

Conditions: in n-propanol, 283.15 K
outcome measure: solubility (mole fraction)

1. c1ccc2[nH]cnc2c1; 0.0798

====

Conditions: in isobutanol, 318.15 K
outcome measure: solubility (mole fraction)

1) c1ccc2[nH]cnc2c1; 0.139
